Entry source: patent US8871787B2

- assay_explanation: Equilibrium solubility of the D-tartrate salt in several solvents at 25° C.
- Format: physicochemical
- assay_conditions: thermodynamic from solid; Water, 25° C., measured as the free base
measure_name: solubility (mg/mL)
// return numeric value only (unit: mg/mL, not printed)

Exam item: Would you kindly share the measured solubility for O=C(O)C(O)C(O)C(=O)O.O=C(O[C@H]1CN2CCC1CC2)N(Cc1cc(F)c(F)c(F)c1)c1cccc(F)c1 [D-tartrate salt] ?
Marked response: 251

====

- assay_explanation: Salt screening of compound I with several acids (aspect of the salt)
- Type: physicochemical
- assay_conditions: free base and acid in hot ethanol, cooled, solvent evaporated
measure_name: Aspect of the salt

compound="CC(O)C(=O)O.O=C(OC1CN2CCC1CC2)N(Cc1cc(F)c(F)c(F)c1)c1cccc(F)c1 (racemic)" measure_name="Aspect of the salt" meas_value=Oil
compound="O=C(O)C(O)c1ccccc1.O=C(OC1CN2CCC1CC2)N(Cc1cc(F)c(F)c(F)c1)c1cccc(F)c1 [(S)-Mandelic]" measure_name="Aspect of the salt" meas_value=Oil

====

- assay_explanation: Equilibrium solubility of the D-tartrate salt in several solvents at 25° C.
- Format: physicochemical
- assay_conditions: organic solvent or mixture, thermodynamic from solid; Isopropyl alcohol, 25° C., measured as the free base
measure_name: solubility (µg/mL)
// return numeric value only (unit: µg/mL, not printed)

Exam item: Would you kindly share the measured solubility for O=C(O)C(O)C(O)C(=O)O.O=C(O[C@H]1CN2CCC1CC2)N(Cc1cc(F)c(F)c(F)c1)c1cccc(F)c1 [D-tartrate salt] ?
Marked response: 1500

====

- assay_explanation: Equilibrium solubility of the D-tartrate salt in several solvents at 25° C.
- Type: physicochemical
- assay_conditions: organic solvent or mixture, thermodynamic from solid; Dichloromethane, 25° C., measured as the free base
measure_name: solubility
Answer with the figure and its unit, nothing else.

Exam item: Would you kindly share the measured solubility for O=C(O)C(O)C(O)C(=O)O.O=C(O[C@H]1CN2CCC1CC2)N(Cc1cc(F)c(F)c(F)c1)c1cccc(F)c1 [D-tartrate salt] ?
Marked response: 2200 µg/mL

====

- assay_explanation: Equilibrium solubility of the D-tartrate salt in several solvents at 25° C.
- Type: physicochemical
- assay_conditions: organic solvent or mixture, thermodynamic from solid; Hexane, 25° C., measured as the free base
measure_name: solubility (µg/mL)
// return numeric value only (unit: µg/mL, not printed)

Exam item: Would you kindly share the measured solubility for O=C(O)C(O)C(O)C(=O)O.O=C(O[C@H]1CN2CCC1CC2)N(Cc1cc(F)c(F)c(F)c1)c1cccc(F)c1 [D-tartrate salt] ?
Marked response: 300

====

- assay_explanation: Equilibrium solubility of the D-tartrate salt in several solvents at 25° C.
- Type: physicochemical
- assay_conditions: organic solvent or mixture, thermodynamic from solid; Ethanol, 25° C., measured as the free base
measure_name: solubility (µg/mL)
// return numeric value only (unit: µg/mL, not printed)

Exam item: Would you kindly share the measured solubility for O=C(O)C(O)C(O)C(=O)O.O=C(O[C@H]1CN2CCC1CC2)N(Cc1cc(F)c(F)c(F)c1)c1cccc(F)c1 [D-tartrate salt] ?
Marked response: 10000
